assay: physchem; settings: water
Observable: solubility

compound CC(C)OC(=O)[C@H](C)N[P@](=O)(CO[C@H](C)Cn1cnc2c(N)ncnc21)Oc1ccccc1 [Free base] , solubility observed: ~3500 µg/mL
